Tested On: BChE from equine serum (Equus caballus, UniProt P81908)
Construct: butyrylcholinesterase from equine serum; from tissue; host or cells: equine serum
Sequence (P81908 whole entry): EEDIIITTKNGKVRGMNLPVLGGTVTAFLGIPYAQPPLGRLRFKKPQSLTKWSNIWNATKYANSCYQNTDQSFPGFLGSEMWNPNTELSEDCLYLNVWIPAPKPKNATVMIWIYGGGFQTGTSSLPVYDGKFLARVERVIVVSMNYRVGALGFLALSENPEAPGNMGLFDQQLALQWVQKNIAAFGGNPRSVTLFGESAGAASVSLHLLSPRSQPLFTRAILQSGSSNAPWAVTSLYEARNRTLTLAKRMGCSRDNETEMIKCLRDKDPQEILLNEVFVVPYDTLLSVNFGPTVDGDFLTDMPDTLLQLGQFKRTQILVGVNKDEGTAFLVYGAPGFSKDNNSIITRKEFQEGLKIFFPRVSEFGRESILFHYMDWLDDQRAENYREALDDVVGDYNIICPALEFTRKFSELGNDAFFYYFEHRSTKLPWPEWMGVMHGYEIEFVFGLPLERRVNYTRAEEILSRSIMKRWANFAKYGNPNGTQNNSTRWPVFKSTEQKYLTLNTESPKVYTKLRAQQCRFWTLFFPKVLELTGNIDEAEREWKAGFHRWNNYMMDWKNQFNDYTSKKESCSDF
Protocol Notes: BChE inhibition, modified Ellman's method
Assay type: biochemical
Details: IC50 (µM) BChE, eqBChE, modified Ellman's method, 25 °C, PBS pH 7.4; mean ± SD, n = 3
Measured Parameter: IC50 (µM)
Numeric answer only, unit µM assumed.

query: Any idea what IC50 was measured for CC(C)C[C@@H](CS(=O)(=O)Nc1ccccc1)NC(=O)OCc1ccccc1 ?
result: 16.5

query: Any idea what IC50 was measured for CC(C)C[C@@H](CS(=O)(=O)NCc1ccc(Cl)cc1)NC(=O)OCc1ccccc1 ?
result: 6.57

query: Any idea what IC50 was measured for CCCNS(=O)(=O)C[C@H](CC(C)C)NC(=O)OCc1ccccc1 ?
result: 58.9

query: Any idea what IC50 was measured for CC(C)C[C@@H](CS(=O)(=O)NCc1ccccc1)NC(=O)OCc1ccccc1 ?
result: 8.52

query: Any idea what IC50 was measured for C[C@@H](CS(=O)(=O)NCc1ccccc1)NC(=O)OCc1ccccc1 ?
result: 100

query: Any idea what IC50 was measured for CC(C)C[C@@H](CS(=O)(=O)NCCc1ccccc1)NC(=O)OCc1ccccc1 ?
result: 15.3

query: Any idea what IC50 was measured for O=C(N[C@@H](Cc1ccccc1)CS(=O)(=O)Nc1ccc(Cl)c(Cl)c1)OCc1ccccc1 ?
result: 12.6

query: Any idea what IC50 was measured for O=C(N[C@@H](Cc1ccccc1)CS(=O)(=O)NCc1ccccc1)OCc1ccccc1 ?
result: 86.1

query: Any idea what IC50 was measured for CC(C)C[C@@H](CS(=O)(=O)NCc1ccco1)NC(=O)OCc1ccccc1 ?
result: 20

----------
Tested On: AChE from electric eel (Electrophorus electricus)
Param label: returns Fulfilled when IC50 < 80 µM, returns Not fulfilled otherwise, including exact equality.

Here's what some known entries look like.
[[record]]
chemical_string = "O=C(N[C@@H](Cc1ccccc1)CS(=O)(=O)NCc1ccccc1)OCc1ccccc1"
category_label = "Fulfilled"

[[record]]
chemical_string = "CC(C)C[C@@H](CS(=O)(=O)Nc1ccccc1)NC(=O)OCc1ccccc1"
category_label = "Fulfilled"

[[record]]
chemical_string = "CC(C)C[C@@H](CS(=O)(=O)NCc1ccco1)NC(=O)OCc1ccccc1"
category_label = "Not fulfilled"

[[record]]
chemical_string = "COc1ccccc1CNS(=O)(=O)C[C@H](CC(C)C)NC(=O)OCc1ccccc1"
category_label = "Not fulfilled"


Here is another compound to look at.
query: Is IC50 of O=C(N[C@@H](Cc1ccccc1)CS(=O)(=O)N[C@@H]1CCCO1)OCc1ccccc1 strictly below 80 µM?
result: Fulfilled

----------
Tested On: AChE from electric eel (Electrophorus electricus)
Construct: from tissue
Protocol Notes: AChE inhibition, modified Ellman's method
Type: biochemical
Measured Parameter: IC50 (µM)
Numeric answer only, unit µM assumed.

Illustrative cases are given below, each with its answer.
[[record]]
chemical_string = "CC(C)C[C@@H](CS(=O)(=O)NCc1ccc(Cl)cc1)NC(=O)OCc1ccccc1"
measured_parameter = "IC50"
result_number = 67.5

[[record]]
chemical_string = "O=C(N[C@@H](Cc1ccccc1)CS(=O)(=O)Nc1ccc2c(c1)OCO2)OCc1ccccc1"
measured_parameter = "IC50"
result_number = 61.4


query: Observed IC50 on AChE from electric eel (Electrophorus electricus) for C[C@@H](CS(=O)(=O)NCc1ccccc1)NC(=O)OCc1ccccc1 , please.
result: 90.6

----------
Tested On: BChE from equine serum (Equus caballus)
Construct: butyrylcholinesterase from equine serum; from tissue; host or cells: equine serum
Protocol Notes: BChE inhibition, modified Ellman's method
Type: biochemical
Details: value over 1 = more potent inhibition of BChE
Outcome label depends on SI (selectivity index) = IC50 (AChE)/IC50 (BChE) relative to 2: at/above gives Criterion met, below gives Criterion not met.

[[record]]
chemical_string = "O=C(N[C@@H](Cc1ccccc1)CS(=O)(=O)Nc1ccc(Cl)c(Cl)c1)OCc1ccccc1"
category_label = "Criterion met"

[[record]]
chemical_string = "O=C(N[C@@H](Cc1ccccc1)CS(=O)(=O)Nc1ccc2c(c1)OCO2)OCc1ccccc1"
category_label = "Criterion met"

[[record]]
chemical_string = "CCCNS(=O)(=O)C[C@H](CC(C)C)NC(=O)OCc1ccccc1"
category_label = "Criterion not met"

[[record]]
chemical_string = "CC(C)C[C@@H](CS(=O)(=O)NCc1ccc(F)c(F)c1)NC(=O)OCc1ccccc1"
category_label = "Criterion not met"

[[record]]
chemical_string = "O=C(N[C@@H](Cc1ccccc1)CS(=O)(=O)N[C@@H]1CCCO1)OCc1ccccc1"
category_label = "Criterion not met"

[[record]]
chemical_string = "CC(C)C[C@@H](CS(=O)(=O)Nc1ccc(Cl)c(Cl)c1)NC(=O)OCc1ccccc1"
category_label = "Criterion met"

[[record]]
chemical_string = "CC(C)C[C@@H](CS(=O)(=O)NCCc1ccccc1)NC(=O)OCc1ccccc1"
category_label = "Criterion met"

[[record]]
chemical_string = "CC(C)C[C@@H](CS(=O)(=O)Nc1ccccc1)NC(=O)OCc1ccccc1"
category_label = "Criterion met"

[[record]]
chemical_string = "C[C@@H](CS(=O)(=O)NCc1ccccc1)NC(=O)OCc1ccccc1"
category_label = "Criterion not met"


Here is another compound to look at.
query: Given O=C(N[C@@H](Cc1ccccc1)CS(=O)(=O)NCc1ccccc1)OCc1ccccc1 , state whether its SI (selectivity index) = IC50 (AChE)/IC50 (BChE) is at least 2.
result: Criterion not met

----------
Tested On: BChE from equine serum (Equus caballus, UniProt P81908)
Construct: butyrylcholinesterase from equine serum; from tissue; host or cells: equine serum
Protocol Notes: BChE inhibition, modified Ellman's method
Assay type: biochemical
Details: IC50 (µM) BChE, eqBChE, modified Ellman's method, 25 °C, PBS pH 7.4; mean ± SD, n = 3
Measured Parameter: IC50

query: Any idea what IC50 was measured for O=C(N[C@@H](Cc1ccccc1)CS(=O)(=O)Nc1ccc2c(c1)OCO2)OCc1ccccc1 ?
result: 11.5 µM

query: Any idea what IC50 was measured for CC(C)C[C@@H](CS(=O)(=O)Nc1ccc(Cl)c(Cl)c1)NC(=O)OCc1ccccc1 ?
result: 13.5 µM

query: Any idea what IC50 was measured for CC(C)C[C@@H](CS(=O)(=O)NCc1ccc(F)c(F)c1)NC(=O)OCc1ccccc1 ?
result: 55.6 µM

query: Any idea what IC50 was measured for O=C(N[C@@H](Cc1ccccc1)CS(=O)(=O)N[C@@H]1CCCO1)OCc1ccccc1 ?
result: 112 µM

----------
Below are compounds with their pIC50 as measured on AChE from electric eel (Electrophorus electricus, UniProt O42275).
Sequence (O42275 24-633): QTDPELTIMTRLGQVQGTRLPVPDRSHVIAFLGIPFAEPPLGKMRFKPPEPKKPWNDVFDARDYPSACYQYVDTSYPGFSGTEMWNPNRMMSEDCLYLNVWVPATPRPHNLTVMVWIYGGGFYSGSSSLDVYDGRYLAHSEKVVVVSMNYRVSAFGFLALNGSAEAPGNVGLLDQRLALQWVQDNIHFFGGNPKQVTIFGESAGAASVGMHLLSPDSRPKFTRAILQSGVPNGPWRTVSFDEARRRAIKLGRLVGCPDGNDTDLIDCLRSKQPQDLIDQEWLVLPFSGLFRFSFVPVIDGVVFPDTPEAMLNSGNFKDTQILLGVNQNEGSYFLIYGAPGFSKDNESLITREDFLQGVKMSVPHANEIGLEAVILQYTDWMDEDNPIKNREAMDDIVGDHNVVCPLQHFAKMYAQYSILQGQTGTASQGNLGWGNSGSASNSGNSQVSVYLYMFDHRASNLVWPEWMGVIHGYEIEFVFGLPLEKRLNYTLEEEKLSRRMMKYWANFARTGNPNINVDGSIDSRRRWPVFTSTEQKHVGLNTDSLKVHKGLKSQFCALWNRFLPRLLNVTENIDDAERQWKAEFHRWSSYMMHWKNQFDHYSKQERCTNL
Worth noting: pIC50 values are minus log10 of concentrations stated in mol/L.

[[record]]
chemical_string = "CC(C)C[C@@H](CS(=O)(=O)NCCc1ccccc1)NC(=O)OCc1ccccc1"
measured_parameter = "pIC50"
result_number = 3.94


Please examine the following record next.
query: Observed pIC50 on AChE from electric eel (Electrophorus electricus, UniProt O42275) for CC(C)C[C@@H](CS(=O)(=O)NCc1ccc(F)c(F)c1)NC(=O)OCc1ccccc1 , please.
result: 4.03

----------
Below are molecules with their pIC50 as measured on AChE from electric eel (Electrophorus electricus).
Worth noting: pIC50 values are minus log10 of concentrations stated in mol/L.

[[record]]
chemical_string = "CC(C)C[C@@H](CS(=O)(=O)NCc1ccccc1)NC(=O)OCc1ccccc1"
measured_parameter = "pIC50"
result_number = 4.04

[[record]]
chemical_string = "CCCNS(=O)(=O)C[C@H](CC(C)C)NC(=O)OCc1ccccc1"
measured_parameter = "pIC50"
result_number = 3.96


query: Observed pIC50 on AChE from electric eel (Electrophorus electricus) for CC(C)C[C@@H](CS(=O)(=O)Nc1ccc(Cl)c(Cl)c1)NC(=O)OCc1ccccc1 , please.
result: 4.02
